Reported residual activity by item:
# target.under.test: Interleukin-1 receptor-associated kinase 1 (Homo sapiens) (UniProt P51617)
# Sequence (P51617 whole entry, looked up): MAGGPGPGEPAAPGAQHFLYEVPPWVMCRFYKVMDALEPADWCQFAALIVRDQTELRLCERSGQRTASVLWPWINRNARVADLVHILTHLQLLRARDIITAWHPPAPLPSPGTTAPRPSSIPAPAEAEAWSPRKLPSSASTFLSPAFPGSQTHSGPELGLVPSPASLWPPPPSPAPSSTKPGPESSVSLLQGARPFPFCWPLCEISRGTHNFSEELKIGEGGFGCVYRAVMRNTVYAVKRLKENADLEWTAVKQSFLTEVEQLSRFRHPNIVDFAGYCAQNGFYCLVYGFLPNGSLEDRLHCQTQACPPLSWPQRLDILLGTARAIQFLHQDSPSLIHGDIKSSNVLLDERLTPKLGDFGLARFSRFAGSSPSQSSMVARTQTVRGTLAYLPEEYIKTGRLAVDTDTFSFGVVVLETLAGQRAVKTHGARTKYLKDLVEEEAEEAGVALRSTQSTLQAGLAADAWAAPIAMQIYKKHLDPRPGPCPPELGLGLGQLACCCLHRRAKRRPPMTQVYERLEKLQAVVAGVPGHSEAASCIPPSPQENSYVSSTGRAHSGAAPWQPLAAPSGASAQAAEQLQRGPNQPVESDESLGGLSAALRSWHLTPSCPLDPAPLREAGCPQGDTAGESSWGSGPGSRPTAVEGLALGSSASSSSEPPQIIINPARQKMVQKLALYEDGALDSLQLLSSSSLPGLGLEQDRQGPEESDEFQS
# measurement.setup: at 10 µM
Give the figure together with its unit, number first.

Here are 2 molecules together with their reported answers.
Ask: Give the value of residual activity reported for the following: O=[N+]([O-])c1ccc(-c2nc(-c3ccc(F)cc3)c(-c3ccncc3)[nH]2)cc1
Result: 108%

Ask: Give the value of residual activity reported for the following: Cc1nc(-c2ccccc2)c(-c2ccncc2)o1
Result: 107%

More entries:
Ask: Give the value of residual activity reported for the following: Cn1cc(/C=C2\C(=O)Nc3ccc(S(N)(=O)=O)cc32)c2ccccc21
Result: 15%

Ask: Give the value of residual activity reported for the following: CC(C)n1cnc2/c(=N/c3cccc(Cl)c3)nc(NCCO)[nH]c21
Result: 34%

Ask: Give the value of residual activity reported for the following: COc1ccc(C(=O)Nc2sc3c(c2C(N)=O)CCCC3)cc1OC
Result: 86%

Ask: Give the value of residual activity reported for the following: Nc1n[nH]c2nnc(-c3c(-c4ccccc4)nn4ccccc34)cc12
Result: 104%

Ask: Give the value of residual activity reported for the following: O=C1Nc2cc(Br)ccc2/C1=C1/Nc2ccccc2/C1=N\O
Result: 90%

Ask: Give the value of residual activity reported for the following: Ic1cccc(CSc2nnc(-c3ccncc3)o2)c1
Result: 94%

Ask: Give the value of residual activity reported for the following: O=C1NC(=O)/C(=C/c2ccc3c(c2)OC(F)(F)O3)S1
Result: 80%

Ask: Give the value of residual activity reported for the following: NC(=O)c1ccc2[nH]c(-c3ccc(Oc4ccc(Cl)cc4)cc3)nc2c1
Result: 82%

Ask: Give the value of residual activity reported for the following: Cc1ccc(NC2=CC(=O)c3sc(C)nc3C2=O)cc1
Result: 110%

Reference source for all entries: ChEMBL document CHEMBL2218924
